tested.target: FGF receptor/BKL complex
Sequence (Q86Z14 whole entry, one chain of several): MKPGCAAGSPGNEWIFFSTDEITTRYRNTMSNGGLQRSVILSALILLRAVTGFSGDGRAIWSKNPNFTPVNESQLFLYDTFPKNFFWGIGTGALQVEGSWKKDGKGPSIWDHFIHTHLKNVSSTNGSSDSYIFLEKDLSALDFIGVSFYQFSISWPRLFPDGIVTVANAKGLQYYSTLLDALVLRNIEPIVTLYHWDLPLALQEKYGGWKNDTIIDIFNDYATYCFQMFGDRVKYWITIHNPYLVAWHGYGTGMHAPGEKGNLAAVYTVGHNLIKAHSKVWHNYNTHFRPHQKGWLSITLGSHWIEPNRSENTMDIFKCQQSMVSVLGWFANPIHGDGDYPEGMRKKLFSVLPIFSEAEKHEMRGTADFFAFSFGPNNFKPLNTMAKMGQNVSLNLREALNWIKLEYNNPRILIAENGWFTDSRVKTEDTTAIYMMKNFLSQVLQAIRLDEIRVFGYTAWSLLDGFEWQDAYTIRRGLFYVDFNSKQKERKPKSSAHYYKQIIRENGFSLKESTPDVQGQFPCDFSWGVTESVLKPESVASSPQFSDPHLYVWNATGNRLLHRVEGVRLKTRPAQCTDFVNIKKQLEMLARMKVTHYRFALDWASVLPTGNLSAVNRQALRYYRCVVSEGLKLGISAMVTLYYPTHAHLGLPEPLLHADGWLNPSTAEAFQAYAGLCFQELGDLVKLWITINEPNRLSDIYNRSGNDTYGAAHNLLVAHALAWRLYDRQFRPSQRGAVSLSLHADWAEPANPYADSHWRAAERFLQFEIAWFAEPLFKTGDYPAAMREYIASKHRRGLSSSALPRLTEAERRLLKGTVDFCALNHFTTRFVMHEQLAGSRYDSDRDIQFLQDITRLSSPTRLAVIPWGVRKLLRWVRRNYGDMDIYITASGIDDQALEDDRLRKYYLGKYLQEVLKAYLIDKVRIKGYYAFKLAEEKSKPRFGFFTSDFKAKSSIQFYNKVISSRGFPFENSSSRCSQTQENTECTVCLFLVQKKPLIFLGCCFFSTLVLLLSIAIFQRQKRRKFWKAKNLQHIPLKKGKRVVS
procedure.text: FGF receptor potency in an Erk phosphorylation assay in HEK293 overexpressing human BKL
Type: cell-based
recorded.conditions: HEK293/BKL cells, pERK after 12 minutes, presence of 0.1% HSA; read-out: EC50 (0.1% HSA)
Documented EC50 across a set of molecules
endpoint.label: EC50 (nM)

INSERT INTO measurements (molecule, measurement) VALUES
  ('S{Beta-180}-[2-[2-[[2-[2-[2-[[2-[2-[2-[[(4S)-4-carboxy-4-(19-carboxynonadecanoyl-amino)butanoyl]amino]ethoxy]ethoxy]acetyl]amino]ethoxy]ethoxy]acetyl]amino]-ethylamino]-2-oxoethyl]-Ala[Gln121,Leu168,C … (protein) HPIPDSSPLLQFGGQVRQRYLYTDDAQQTEAHLEIREDGTVGGAADQSPESLLQLKALKPGVIQILGVKTSRFLCQRPDGALYGSLHFDPEACSFRELLLEDGYNVYQSEAHGLPLHLPGQKSPHRDPAPRGPARFLPLPGLPPALPEPPGILAPQPPDVGSSDPLSLVGPSQGRSPSYCS', 133),
  ('18-[[(1S)-4-[2-[2-[2-[2-[2-[2-(2-acetamidoethylamino)-2-oxo-ethoxy]ethoxy]ethylamino]-2-oxo-ethoxy]ethoxy]ethylamino]-1-carboxy-4-oxo-butyl]amino]-18-oxo-octadecanoic … (protein) HPIPDSSPLLQFGGQVRQRYLYTDDAQQTEAHLEIREDGTVGGAADQSPESLLQLKALKPGVIQILGVKTSRFLCQRPDGALYGSLHFDPEACSFRELLLEDGYNVYQSEAHGLPLHLPGQKSPHRDPAPRGPARFLPLPGLPPALPEPPGILAPQPPDVGSSDPLSLVGPSQCRSPSYAS', 1);
